Give measured MIC for each item. Keep answers brief.
System: Haemophilus influenzae
assay explanation: Antibacterial activity against Haemophilus influenzae […] ATCC 35054 incubated for 18 hrs by CLSI protocol based two-fold serial agar dilution method
Format: functional

Example molecules with recorded MIC:
- molecule: "CC(=O)NC[C@H]1CN(c2ccc(N3CCC4(CC3)OCC(C)(C)CO4)c(F)c2)C(=O)O1"
  measured result: "> 16 µg/mL"
- molecule: "CC(=O)NC[C@H]1CN(c2ccc(N3CCC4(OCCO4)C(C)C3)c(F)c2)C(=O)O1 (some centres undefined)"
  measured result: "> 16 µg/mL"
- molecule: "CC(=O)NC[C@H]1CN(c2ccc(N3CCC4(CC3)OCCS4(=O)=O)c(F)c2)C(=O)O1"
  measured result: "16 µg/mL"
- molecule: "CC(=O)NC[C@H]1CN(c2ccc(N3CCC4(CC3)OCCO4)c(F)c2)C(=O)O1"
  measured result: "16 µg/mL"

Please give MIC, item by item, for the list that follows.
1. CC(=O)NC[C@H]1CN(c2cc(F)c(N3CCC4(OCCO4)[C@H](F)C3)c(F)c2)C(=O)O1
2. CC(=O)NC[C@H]1CN(c2ccc(N3CCC4(CC3)OCCS4)c(F)c2)C(=O)O1
3. CC(=O)NC[C@H]1CN(c2cc(F)c(N3CCC4(OCCO4)[C@@H](F)C3)c(F)c2)C(=O)O1
4. CC(=O)NC[C@H]1CN(c2ccc(N3CCC4(OCCO4)C(F)C3)cc2)C(=O)O1 (some centres undefined)
5. CC(=O)NC[C@H]1CN(c2ccc(N3CCC4(CC3)SCCS4)c(F)c2)C(=O)O1

Result block:
16 µg/mL
> 16 µg/mL
> 16 µg/mL
> 16 µg/mL
> 16 µg/mL

* * *

System: Haemophilus influenzae
assay explanation: Antibacterial activity against Haemophilus influenzae […] ATCC 35054 incubated for 18 hrs by CLSI protocol based two-fold serial agar dilution method
Assay type: functional
attribute measured: MIC (µg/mL)
Numbers only, in µg/mL.

- compound: "CC(=O)NC[C@H]1CN(c2ccc(N3CCC4(OCCO4)C(C)(C)C3)c(F)c2)C(=O)O1"
  measured result: 2
- compound: "CC(=O)NC[C@H]1CN(c2cc(F)c(N3CCC4(OCCO4)C(F)C3)c(F)c2)C(=O)O1 (some centres not stated)"
  measured result: 16

I'm hoping you can list MIC for every compound here, please.
1. CC(=O)NC[C@H]1CN(c2ccc(N3CCC4(CC3)CO4)c(F)c2)C(=O)O1
2. CC(=O)NC[C@H]1CN(c2ccc(N3CCCC4(C3)OCCO4)c(F)c2)C(=O)O1
3. CC(=O)NC[C@H]1CN(c2ccc(N3CCC4(CC3)OCC[S+]4[O-])c(F)c2)C(=O)O1 (some centres not stated)

Result block:
1. 16
2. 16
3. 8

Data origin: ChEMBL document CHEMBL5113436
